The reported measurements were obtained from the supplement of paper PMC11908140.

B1: library; numbered along this chain (parent)
chain: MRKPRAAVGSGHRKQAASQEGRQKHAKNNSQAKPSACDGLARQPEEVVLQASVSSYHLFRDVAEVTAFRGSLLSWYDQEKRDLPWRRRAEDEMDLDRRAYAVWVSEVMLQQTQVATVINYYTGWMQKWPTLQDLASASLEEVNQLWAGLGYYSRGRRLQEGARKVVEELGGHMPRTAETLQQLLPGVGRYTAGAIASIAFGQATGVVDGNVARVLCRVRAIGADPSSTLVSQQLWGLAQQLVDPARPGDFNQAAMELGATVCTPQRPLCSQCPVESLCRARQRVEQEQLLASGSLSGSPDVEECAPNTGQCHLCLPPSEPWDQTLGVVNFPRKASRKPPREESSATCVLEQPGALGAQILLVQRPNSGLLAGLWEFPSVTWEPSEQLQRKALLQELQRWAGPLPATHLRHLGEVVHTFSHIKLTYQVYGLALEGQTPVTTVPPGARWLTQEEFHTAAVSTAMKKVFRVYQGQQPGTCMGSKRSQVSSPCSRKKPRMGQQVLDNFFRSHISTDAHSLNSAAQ

Variants of: B1
Experiment: 8OG:A repair function score (normalized; synonymous = 0, nonsense = -1) (normalized log-likelihood score); higher = more repair activity (WT-like);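 also: cells sorted at 72 h after reporter transfection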
Conditions: with 8OG:A DNA repair reporter (GFP) in HEK-293 MUTYH KO cells
So I've got a bunch of variants here, and I need their 8OG:A repair function score values.

Y425V
0.00816
S480P
-0.000393
R389P
-0.583
G222L
-0.623
R482P
0.0273
V362Q
-0.414
A177C
-0.0436
Q159L
0.127
K464C
-0.49
Y152E
-1.16

Give measured 8OG:A repair function score for every item shown.
1. D96S
2. A305L
3. L349A
4. V458H
5. T130E
6. E79W

[out]
1. -0.15
2. -0.00389
3. -0.352
4. -0.592
5. -0.171
6. -0.0018

For each listed entry, give its 8OG:A repair function score.
1. Y121W
2. L360G
3. G209T
4. M93S
5. M478E
6. L403A

[out]
1: -0.427; 2: -0.95; 3: -0.207; 4: -0.0236; 5: 0.0141; 6: -0.335
